Reported remaining at 24 h, 10 µM values follow for various molecules
# Target or system: Recombinant soluble human NEP (Homo sapiens, UniProt P08473)
# Construct: Recombinant soluble human NEP; purchased BioTechne, Wiesbaden, Germany
# Sequence (P08473 52-750 limits assumed): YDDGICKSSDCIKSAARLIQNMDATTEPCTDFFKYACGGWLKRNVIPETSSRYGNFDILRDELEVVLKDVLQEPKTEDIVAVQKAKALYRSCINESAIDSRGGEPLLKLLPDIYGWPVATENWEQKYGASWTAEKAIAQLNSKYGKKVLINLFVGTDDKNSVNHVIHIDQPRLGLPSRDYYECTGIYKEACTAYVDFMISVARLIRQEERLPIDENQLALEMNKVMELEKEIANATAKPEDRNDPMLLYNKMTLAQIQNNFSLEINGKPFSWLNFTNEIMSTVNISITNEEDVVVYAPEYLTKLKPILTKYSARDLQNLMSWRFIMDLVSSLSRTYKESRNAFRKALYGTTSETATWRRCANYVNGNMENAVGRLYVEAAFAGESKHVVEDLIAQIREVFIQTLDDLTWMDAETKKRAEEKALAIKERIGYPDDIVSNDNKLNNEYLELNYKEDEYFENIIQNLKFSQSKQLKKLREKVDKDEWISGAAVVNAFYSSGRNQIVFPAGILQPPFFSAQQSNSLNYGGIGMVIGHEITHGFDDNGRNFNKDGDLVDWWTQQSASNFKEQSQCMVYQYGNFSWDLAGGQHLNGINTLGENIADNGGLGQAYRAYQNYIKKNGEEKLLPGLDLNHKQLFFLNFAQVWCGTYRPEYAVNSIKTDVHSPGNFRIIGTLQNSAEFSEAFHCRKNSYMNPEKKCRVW
# Assay details: Proteolytic stability assay against NEP
# Format: in vitro ADME
# Condition parameters: recombinant soluble human NEP, human NEP 100 ng/mL, compound 10 µM, 37°C, LC-MS quantification, read-out: % intact compound remaining after 24h incubation
Where a SMILES comes first, the peptide text is derived from it. Bridges are numbered along the chain shown (N, C = ends). [ ]: non-standard residue; d: D form. The star is where a group is joined. DOTA = O=C(O)CN1CCN(CC(=O)O)CCN(CC(=O)*)CCN(CC(=O)O)CC1; Pentanoyl(4-Me) = CC(C)CCC(=O)*; Cit = NC(=O)NCCC[C@H](N)C(=O)O

Q: With Recombinant soluble human NEP (Homo sapiens, UniProt P08473) as the test system, provide measured remaining at 24 h, 10 µM for this molecule: CC[C@H](C)[C@@H]1NC(=O)[C@@H]2CCCN2C(=O)[C@@H]2CCCN2C(=O)[C@H](Cc2ccccc2)NC(=O)[C@H](Cc2ccc(O)cc2)NC(=O)[C@H](CCC(N)=O)NC(=O)[C@H](CCCCNC(=O)CN2CCN(CC(=O)O)CCN(CC(=O)O)CCN(CC(=O)O)CC2)NC(=O)[C@@H](NC(=O)CCC(C)C)CSSC[C@@H](C(N)=O)NC(=O)[C@H](CC(C)C)NC1=O [UPAR-466] ({Pentanoyl(4-Me)}-CK(DOTA)QYFPPILC-NH2; disulfide 1-10)
Ans: > 95%

Q: Give reported remaining at 24 h, 10 µM for CC[C@H](C)[C@@H]1NC(=O)[C@@H](C)NC(=O)[C@@H]2CCCN2C(=O)[C@H](Cc2ccccc2)NC(=O)[C@H](Cc2ccc(O)cc2)NC(=O)[C@H](CC(=O)O)NC(=O)[C@H](CCCNC(N)=O)NC(=O)[C@@H](NC(=O)CCC(C)C)CSSC[C@@H](C(N)=O)NC(=O)[C@H](CC(C)C)NC1=O [UPAR-434] ({Pentanoyl(4-Me)}-C[Cit]DYFP[dA]ILC-NH2; disulfide 1-10) (Recombinant soluble human NEP (Homo sapiens, UniProt P08473))
Ans: > 95%

Attention now shifts to the item below.
Q: Answer with remaining at 24 h, 10 µM of CC[C@H](C)[C@@H]1NC(=O)[C@@H](C)NC(=O)[C@@H]2CCCN2C(=O)[C@H](Cc2ccccc2)NC(=O)[C@H](Cc2ccc(O)cc2)NC(=O)[C@H](CCCCNC(=O)CN2CCN(CC(=O)O)CCN(CC(=O)O)CCN(CC(=O)O)CC2)NC(=O)[C@H](CCCNC(N)=O)NC(=O)[C@@H](NC(=O)[C@H](CC(C)C)NC(=O)[C@H](CC(=O)O)NC(C)=O)CSSC[C@@H](C(N)=O)NC(=O)[C@H](CC(C)C)NC1=O [UPAR-189] (Ac-DLC[Cit]K(DOTA)YFP[dA]ILC-NH2; disulfide 3-12) measured for Recombinant soluble human NEP (Homo sapiens, UniProt P08473).
Ans: 94%

====

Catalogue of Kd readings, one per entry.
# Target or system: human uPAR (uPAR-Fc) (Homo sapiens)
# Construct: comprising amino acids Leu23-Arg303 according to UniProt entry Q03405.1; purchased R&D Systems 10378-UK-100
# Sequence (Q03405 23-303): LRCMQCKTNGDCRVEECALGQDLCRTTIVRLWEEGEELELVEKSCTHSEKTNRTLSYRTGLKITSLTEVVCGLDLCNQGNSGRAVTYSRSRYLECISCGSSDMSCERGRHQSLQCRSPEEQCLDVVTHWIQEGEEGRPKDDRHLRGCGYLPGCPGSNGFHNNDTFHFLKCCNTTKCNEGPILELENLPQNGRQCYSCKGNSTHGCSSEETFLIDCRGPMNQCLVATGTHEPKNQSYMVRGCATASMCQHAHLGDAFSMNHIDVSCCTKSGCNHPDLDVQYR
# Assay details: Surface plasmon resonance (SPR) assay, single cycle kinetics
# Type: binding
# Condition parameters: pKD category for uPAR SPR activity assay; uPAR-Fc on Protein A-Chip, 25°C; read-out: pKD CAT (converted)
# Method: Surface plasmon resonance (SPR) is an optical technique used to measure molecular interactions in real time. SPR occur when plane-polarized light hits a metal film under total internal reflection conditions. […] In an SPR experiment, one molecule (i.e. uPAR) is immobilized on a sensor chip and binding to a second molecule (i.e. test compounds) is measured under flow. […] This response is measured in resonance units (RU). […]
*1 amine or outer side, *2 acyl side, *3 side chain or, on linkers, in order; H or OH if unused. Where a SMILES comes first, the peptide text is derived from it. Bridges are numbered along the chain shown (N, C = ends). [ ]: non-standard residue; d: D form. The star is where a group is joined. DOTA = O=C(O)CN1CCN(CC(=O)O)CCN(CC(=O)*)CCN(CC(=O)O)CC1; cisHyp = O=C(O)[C@@H]1C[C@H](O)CN1; Propanoyl(3-NMe2) = CN(C)CCC(=O)*; Hyp = O=C(O)[C@@H]1C[C@@H](O)CN1; Pentanoyl(4-Me) = CC(C)CCC(=O)*; Cit = NC(=O)NCCC[C@H](N)C(=O)O; Butoxycarbonyl = CCCCOC(=O)*; Suc = O=C(CCC(=O)[*:2])[*:1]; Nva = CCC[C@H](N)C(=O)O; Pentanoyl = CCCCC(=O)*

Solved entries:
Q: Consider the compound CCCCOC(=O)N[C@H]1CSSC[C@@H](C(N)=O)NC(=O)[C@H](CCC)NC(=O)[C@H]([C@@H](C)CC)NC(=O)[C@@H]2C[C@@H](O)CN2C(=O)[C@@H]2CCCN2C(=O)[C@H](Cc2ccccc2)NC(=O)[C@H](Cc2ccc(O)cc2)NC(=O)[C@H](CCCCNC(=O)CN2CCN(CC(=O)O)CCN(CC(=O)O)CCN(CC(=O)O)CC2)NC(=O)[C@H](CCCNC(N)=O)NC1=O [UPAR-275] (Butoxycarbonyl-C[Cit]K(DOTA)YFP[Hyp]I[Nva]C-NH2; disulfide 1-10) . State its measured Kd.
Ans: < 1.58 nM

Q: State its Kd for this compound: CC[C@H](C)[C@@H]1NC(=O)[C@@H](C)NC(=O)[C@@H]2CCCN2C(=O)[C@H](Cc2ccccc2)NC(=O)[C@H](Cc2ccc(O)cc2)NC(=O)[C@H](CCC(N)=O)NC(=O)[C@H](CCCNC(N)=O)NC(=O)[C@@H](NC(=O)CCN(C)C)CSSC[C@@H](C(N)=O)NC(=O)[C@H](CC(C)C)NC1=O [UPAR-333] ({Propanoyl(3-NMe2)}-C[Cit]QYFP[dA]ILC-NH2; disulfide 1-10)
Ans: > 100 nM

Q: Report measured Kd; entry is CCC[C@H](NC(=O)CCC(=O)O)C(=O)N[C@H]1CSSC[C@@H](C(N)=O)NC(=O)[C@H](CCC)NC(=O)[C@H]([C@@H](C)CC)NC(=O)[C@@H]2C[C@@H](O)CN2C(=O)[C@@H]2CCCN2C(=O)[C@H](Cc2ccccc2)NC(=O)[C@H](Cc2ccc(O)cc2)NC(=O)[C@H](CCCCNC(=O)CN2CCN(CC(=O)O)CCN(CC(=O)O)CCN(CC(=O)O)CC2)NC(=O)[C@H]([C@@H](C)O)NC1=O [UPAR-297] (Suc-[Nva]CTK(DOTA)YFP[Hyp]I[Nva]C-NH2; disulfide 2-11)
Ans: < 1.58 nM

Q: In one line, give reported Kd of the entry CCCCC(=O)N[C@H]1CSSC[C@@H](C(N)=O)NC(=O)[C@H](CCC)NC(=O)[C@H]([C@@H](C)CC)NC(=O)[C@@H]2C[C@H](O)CN2C(=O)[C@@H]2CCCN2C(=O)[C@H](Cc2ccccc2)NC(=O)[C@H](Cc2ccc(O)cc2)NC(=O)[C@H](CCCCNC(=O)CN2CCN(CC(=O)O)CCN(CC(=O)O)CCN(CC(=O)O)CC2)NC(=O)[C@H](CCCNC(N)=O)NC1=O [UPAR-214] (Pentanoyl-C[Cit]K(DOTA)YFP[cisHyp]I[Nva]C-NH2; disulfide 1-10) .
Ans: < 1.58 nM

Query compound follows.
Q: Name the recorded Kd of the compound listed here: CC[C@H](C)[C@@H]1NC(=O)[C@@H](C)NC(=O)[C@@H]2CCCN2C(=O)[C@H](Cc2ccccc2)NC(=O)[C@H](Cc2ccc(O)cc2)NC(=O)[C@H](CCC(N)=O)NC(=O)[C@@H](CCCCNC(=O)CN2CCN(CC(=O)O)CCN(CC(=O)O)CCN(CC(=O)O)CC2)NC(=O)[C@@H](NC(=O)CCC(C)C)CSSC[C@@H](C(N)=O)NC(=O)[C@H](CC(C)C)NC1=O [UPAR-130] ({Pentanoyl(4-Me)}-C[dK](DOTA)QYFP[dA]ILC-NH2; disulfide 1-10)
Ans: > 100 nM

Reference source: patent EP4610269A1
